# protocol: self-splicing fitness, log relative to wild type (ln ratio); higher = more splicing; Tetrahymena group I intron in knt gene, E. coli kanamycin selection, DiMSum; sequences stand for … in CUCUCU…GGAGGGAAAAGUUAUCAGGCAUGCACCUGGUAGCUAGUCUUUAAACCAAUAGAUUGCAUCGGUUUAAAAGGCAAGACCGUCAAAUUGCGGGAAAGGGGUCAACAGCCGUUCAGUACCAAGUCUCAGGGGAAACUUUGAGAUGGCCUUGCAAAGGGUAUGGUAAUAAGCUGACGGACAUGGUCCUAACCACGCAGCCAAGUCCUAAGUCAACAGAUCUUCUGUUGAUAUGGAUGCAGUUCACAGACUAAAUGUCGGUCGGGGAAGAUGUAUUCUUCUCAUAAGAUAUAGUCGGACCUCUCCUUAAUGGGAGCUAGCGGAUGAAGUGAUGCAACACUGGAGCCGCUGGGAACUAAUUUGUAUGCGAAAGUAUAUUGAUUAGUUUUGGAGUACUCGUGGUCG;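 further: selection with 25 µg/mL kanamycin versus none on LB agar overnight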
# test_settings: 37 °C
Label satisfied when self-splicing fitness (ln) is at or above -1; anything below gets not satisfied.

seq_string	class_name
CAAUAGCAAUAUUACGUCAG	not satisfied
CGUUAGCAAUAUUACGGUUG	satisfied
UGCUAGCAAUAUUACGGACU	satisfied

Is it the case that CCACAGCAAUAUUACGUGAU has self-splicing fitness (ln) reaching or exceeding -1?
not satisfied

Exam item: decide whether the reported self-splicing fitness (ln) for AUGGAGCAAUAUUACGGGGA is at least -1.
not satisfied

State whether the measured self-splicing fitness (ln) reaches -1, counting equality as reaching it, for GAUGAGCAAUAUUACGUGCC
not satisfied

Exam item: decide whether the reported self-splicing fitness (ln) for AUCUAGCAAUAUUACGGCAA is at least -1.
satisfied

Could you tell me if the measured self-splicing fitness (ln) of GCUGAGCAAUAUUACGAAUU reaches -1 or more?
not satisfied

----------
# protocol: self-splicing fitness, log relative to wild type (ln ratio); higher = more splicing; Tetrahymena group I intron in knt gene, E. coli kanamycin selection, DiMSum; sequences stand for … in CUCUCU…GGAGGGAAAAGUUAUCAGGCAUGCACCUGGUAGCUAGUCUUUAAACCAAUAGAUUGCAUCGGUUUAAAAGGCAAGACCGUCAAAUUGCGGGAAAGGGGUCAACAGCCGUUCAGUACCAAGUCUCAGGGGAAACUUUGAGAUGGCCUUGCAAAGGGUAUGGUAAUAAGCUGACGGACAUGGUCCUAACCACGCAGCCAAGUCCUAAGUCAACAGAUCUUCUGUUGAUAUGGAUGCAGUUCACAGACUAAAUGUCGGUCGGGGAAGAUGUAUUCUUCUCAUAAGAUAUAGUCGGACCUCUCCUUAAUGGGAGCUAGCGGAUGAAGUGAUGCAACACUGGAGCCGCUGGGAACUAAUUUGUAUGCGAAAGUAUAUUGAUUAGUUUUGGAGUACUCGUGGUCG
# test_settings: 30 °C
Please go through the items and note down their self-splicing fitness (ln).
One number for each entry.

seq_string	measured_parameter	result_number
AGCCAGCAAUAUUACGAAAG	self-splicing fitness (ln)	-3.13
GCUGAGCAAUAUUACGUCAU	self-splicing fitness (ln)	-3.26
GCUUAGCAAUAUUACGCCUA	self-splicing fitness (ln)	-2.32
ACUAAGCAAUAUUACGGGCG	self-splicing fitness (ln)	-0.856
ACGGAGCAAUAUUACGGCAC	self-splicing fitness (ln)	-3.21

For every record below, what is its self-splicing fitness (ln)?
1. UGCAAGCAAUAUUACGCUUU
2. UCUUAGCAAUAUUACGCCAG

[-3.45, -2.74]

----------
# protocol: self-splicing fitness, log relative to wild type (ln ratio); higher = more splicing; Tetrahymena group I intron in knt gene, E. coli kanamycin selection, DiMSum; sequences stand for … in CUCUCU…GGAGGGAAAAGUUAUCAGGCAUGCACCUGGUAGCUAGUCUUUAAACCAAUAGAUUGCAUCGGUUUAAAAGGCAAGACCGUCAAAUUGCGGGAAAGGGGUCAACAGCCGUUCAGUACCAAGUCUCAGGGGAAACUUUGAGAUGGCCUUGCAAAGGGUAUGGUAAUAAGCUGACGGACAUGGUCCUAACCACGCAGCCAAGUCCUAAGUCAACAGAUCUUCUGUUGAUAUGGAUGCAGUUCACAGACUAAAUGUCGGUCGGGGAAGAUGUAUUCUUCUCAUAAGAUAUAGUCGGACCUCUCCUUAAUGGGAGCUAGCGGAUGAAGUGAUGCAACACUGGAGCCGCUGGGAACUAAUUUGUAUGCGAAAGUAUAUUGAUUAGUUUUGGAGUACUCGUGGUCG
# test_settings: 37 °C
Dear colleague, classification is by self-splicing fitness (ln), with ranges listed here: low end (below -2), middle (-2 to below -1), high end (-1 or more)

Some solved entries appear below for comparison.
seq_string	class_name
AAGUAGCAAUAUUACGUUGU	low end
GUAGAGCAAUAUUACGGGAG	middle

Which category does the recorded self-splicing fitness (ln) put CGACAGCAAUAUUACGUGAG in?
high end

Which bin, given its self-splicing fitness (ln), does GCAAAGCAAUAUUACGUUAA occupy?
middle

Bin this entry: ACCCAGCAAUAUUACGCCCG
middle

Place this sequence in its band: CGUAAGCAAUAUUACGCUAU
low end

----------
Give measured self-splicing fitness (ln) for each item. Keep answers brief.
# protocol: self-splicing fitness, log relative to wild type (ln ratio); higher = more splicing; Tetrahymena group I intron in knt gene, E. coli kanamycin selection, DiMSum; sequences stand for … in CUCUCU…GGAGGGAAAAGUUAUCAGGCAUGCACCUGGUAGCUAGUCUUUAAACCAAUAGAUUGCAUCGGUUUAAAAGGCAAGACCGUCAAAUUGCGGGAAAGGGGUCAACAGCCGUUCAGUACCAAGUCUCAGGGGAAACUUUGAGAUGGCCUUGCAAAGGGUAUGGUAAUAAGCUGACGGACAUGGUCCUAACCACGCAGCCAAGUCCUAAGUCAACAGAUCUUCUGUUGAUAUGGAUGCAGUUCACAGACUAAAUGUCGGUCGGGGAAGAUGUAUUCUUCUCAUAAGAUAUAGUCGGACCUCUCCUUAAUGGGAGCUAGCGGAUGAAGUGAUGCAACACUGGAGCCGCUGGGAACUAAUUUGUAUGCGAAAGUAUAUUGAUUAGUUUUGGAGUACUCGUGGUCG
# test_settings: 30 °C
Numbers only.

// known answers, use as guide
seq_string	self-splicing fitness (ln)
GCCCAGCAAUAUUACGUCUU	-0.849
UCAUAGCAAUAUUACGGGAU	-3.11
GCUAAGCAAUAUUACGGCGA	-0.936

Provide self-splicing fitness (ln) values for the following items, in order.
1. UAGCAGCAAUAUUACGCCUC
2. UAUGAGCAAUAUUACGACCA
3. GCUUAGCAAUAUUACGGAGA
4. GGUGAGCAAUAUUACGAGUU

1: -3.28; 2: -2.25; 3: -2.02; 4: -2.39

Hey, quick one: what's self-splicing fitness (ln) for each of these?
1. CUACAGCAAUAUUACGCCAU
2. UUGAAGCAAUAUUACGUAAG
3. ACUGAGCAAUAUUACGUCGU
4. UUAAAGCAAUAUUACGCUGG
5. AGAAAGCAAUAUUACGUUCA

-3.16
-0.735
-2.87
-0.4
-0.142

Give one value of self-splicing fitness (ln) per listed sequence.
1. CCUGAGCAAUAUUACGUCAA
2. AGGGAGCAAUAUUACGGUUU

-2.73
-3.83

# batch size: 2; output self-splicing fitness (ln) per entry
1. AGGCAGCAAUAUUACGUACC
2. CGACAGCAAUAUUACGGAAC

-0.0574
-3.4

----------
# protocol: self-splicing fitness, log relative to wild type (ln ratio); higher = more splicing; Tetrahymena group I intron in knt gene, E. coli kanamycin selection, DiMSum; sequences stand for … in CUCUCU…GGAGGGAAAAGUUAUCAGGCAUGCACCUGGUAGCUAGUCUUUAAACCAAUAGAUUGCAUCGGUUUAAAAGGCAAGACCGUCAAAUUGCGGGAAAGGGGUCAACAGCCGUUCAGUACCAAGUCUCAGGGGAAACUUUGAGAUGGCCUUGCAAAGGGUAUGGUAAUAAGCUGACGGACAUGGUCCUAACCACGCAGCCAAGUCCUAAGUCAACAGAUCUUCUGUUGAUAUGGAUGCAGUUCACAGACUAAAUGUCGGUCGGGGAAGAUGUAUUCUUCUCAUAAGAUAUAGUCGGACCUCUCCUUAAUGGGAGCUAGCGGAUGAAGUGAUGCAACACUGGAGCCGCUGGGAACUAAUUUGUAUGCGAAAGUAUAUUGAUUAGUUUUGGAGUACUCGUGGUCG
# test_settings: 30 °C
measured_parameter: self-splicing fitness (ln)
Numbers only.

seq_string	measured_parameter	result_number
UGAGAGCAAUAUUACGUAGG	self-splicing fitness (ln)	-2.48
CAUGAGCAAUAUUACGGGGA	self-splicing fitness (ln)	-3.14
ACUCAGCAAUAUUACGAUGC	self-splicing fitness (ln)	-0.776
ACCGAGCAAUAUUACGGGGC	self-splicing fitness (ln)	-3.64
GAAAAGCAAUAUUACGACAA	self-splicing fitness (ln)	-0.627
ACAAAGCAAUAUUACGAUAG	self-splicing fitness (ln)	-3.47

// each listed sequence needs a value for self-splicing fitness (ln)
1. CACUAGCAAUAUUACGAUUG
2. CUGGAGCAAUAUUACGGACG
3. UGUCAGCAAUAUUACGCGAU
4. AUAAAGCAAUAUUACGCGUG
5. UGUAAGCAAUAUUACGUGCG
6. CCUUAGCAAUAUUACGUCCU

1. -0.641
2. -1.4
3. -3.41
4. -1.11
5. -0.869
6. -2.36

Provide the reported self-splicing fitness (ln) of each entry below, same order.
1. AUACAGCAAUAUUACGAUCU
2. GAUGAGCAAUAUUACGAUAU
3. GCCUAGCAAUAUUACGUCAC
4. GUGGAGCAAUAUUACGCAUG

1. -0.478
2. -3.81
3. -3.49
4. -3.81

// each listed sequence needs a value for self-splicing fitness (ln)
1. CUUAAGCAAUAUUACGCUCU
2. AGGAAGCAAUAUUACGACCA
3. GUGGAGCAAUAUUACGGAUC
4. GGCAAGCAAUAUUACGAUGU
5. CAACAGCAAUAUUACGCACG
6. UAGUAGCAAUAUUACGUUAA

1. -2.77
2. -0.504
3. -1.1
4. -2.19
5. -0.598
6. -2.34

For each of the sequences below, state self-splicing fitness (ln).
1. UAAUAGCAAUAUUACGUAAG
2. AACUAGCAAUAUUACGUUCU
3. CGUCAGCAAUAUUACGAGAU
4. UCUCAGCAAUAUUACGGUCC
5. UAGCAGCAAUAUUACGUUGU

[-2.47, -1.55, -3.93, -3, -3.72]
